Can you tell me IC50 for the items I'm about to list?
- TARGET_UNDER_TEST: FL-SMARCA4 (Homo sapiens)
- Sequence (P51532 whole entry): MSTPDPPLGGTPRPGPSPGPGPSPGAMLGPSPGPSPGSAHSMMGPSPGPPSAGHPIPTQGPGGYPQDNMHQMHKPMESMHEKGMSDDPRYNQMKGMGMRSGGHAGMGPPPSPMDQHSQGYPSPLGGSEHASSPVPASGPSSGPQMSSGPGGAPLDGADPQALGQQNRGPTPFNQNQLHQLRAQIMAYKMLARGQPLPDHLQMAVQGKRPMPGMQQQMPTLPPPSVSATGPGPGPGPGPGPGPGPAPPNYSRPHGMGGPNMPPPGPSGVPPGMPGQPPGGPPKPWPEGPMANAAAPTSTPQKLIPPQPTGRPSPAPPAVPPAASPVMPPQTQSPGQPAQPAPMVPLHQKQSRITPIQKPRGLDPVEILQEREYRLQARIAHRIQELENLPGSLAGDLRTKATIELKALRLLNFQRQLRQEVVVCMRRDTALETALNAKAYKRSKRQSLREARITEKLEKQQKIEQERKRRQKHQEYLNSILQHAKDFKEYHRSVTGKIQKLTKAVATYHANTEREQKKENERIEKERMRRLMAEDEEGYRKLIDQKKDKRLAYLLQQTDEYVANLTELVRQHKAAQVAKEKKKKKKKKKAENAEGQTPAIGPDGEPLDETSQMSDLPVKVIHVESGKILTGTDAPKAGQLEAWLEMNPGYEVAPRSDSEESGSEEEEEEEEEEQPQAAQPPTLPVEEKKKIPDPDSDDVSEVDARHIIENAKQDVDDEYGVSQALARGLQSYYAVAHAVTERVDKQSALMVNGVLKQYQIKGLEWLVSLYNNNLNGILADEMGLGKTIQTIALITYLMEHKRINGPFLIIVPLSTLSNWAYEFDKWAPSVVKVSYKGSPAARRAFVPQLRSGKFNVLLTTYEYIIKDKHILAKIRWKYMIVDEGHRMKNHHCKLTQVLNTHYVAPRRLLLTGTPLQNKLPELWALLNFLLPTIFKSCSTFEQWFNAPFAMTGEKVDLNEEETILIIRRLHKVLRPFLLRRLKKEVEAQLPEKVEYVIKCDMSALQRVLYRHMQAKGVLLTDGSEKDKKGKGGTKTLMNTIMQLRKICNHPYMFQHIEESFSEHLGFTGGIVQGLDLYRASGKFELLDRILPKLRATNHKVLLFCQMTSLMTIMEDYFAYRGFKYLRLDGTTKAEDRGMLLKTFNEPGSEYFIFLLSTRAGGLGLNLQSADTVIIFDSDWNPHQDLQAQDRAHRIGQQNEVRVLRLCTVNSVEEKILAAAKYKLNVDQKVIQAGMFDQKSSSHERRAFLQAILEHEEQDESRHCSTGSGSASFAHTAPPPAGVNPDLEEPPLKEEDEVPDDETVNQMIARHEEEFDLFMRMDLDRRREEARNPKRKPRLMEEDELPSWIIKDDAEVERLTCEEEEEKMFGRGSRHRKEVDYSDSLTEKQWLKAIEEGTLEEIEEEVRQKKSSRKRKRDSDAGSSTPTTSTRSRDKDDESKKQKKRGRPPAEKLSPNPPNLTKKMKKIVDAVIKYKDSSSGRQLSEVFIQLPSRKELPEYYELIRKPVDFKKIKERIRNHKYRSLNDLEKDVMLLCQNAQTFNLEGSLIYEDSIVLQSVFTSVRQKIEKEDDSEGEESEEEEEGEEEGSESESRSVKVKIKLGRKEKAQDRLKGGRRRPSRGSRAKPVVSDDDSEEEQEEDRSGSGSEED
- PROCEDURE_DETAILS: SMARCA4 ATPase activity assay (ADP-Glo, chicken mononucleosome substrate)
- CONDITION_DETAILS: FL-SMARCA4 IC50, Table 3.2; ATPase assay, enzyme 5 nM, ATP 250 uM, chicken mononucleosome 10 nM, 30 min preincubation

| COMPOUND | TARGET_UNDER_TEST | IC50 |
| --- | --- | --- |
| CNC(=O)c1cc(C(=O)Nc2cc(F)c(=O)n(CCF)c2)sc1C(F)(F)F [Compound 305] | FL-SMARCA4 (Homo sapiens) | > 50 µM |

Hello, I would appreciate it if you could give IC50 for each entry below.
1. CCn1cc(NC(=O)c2cccn2C)ccc1=O [Compound 13]
2. CCn1cc(NC(=O)c2cc(Cl)c(Cl)s2)cc(NCCN(C)C)c1=O [Compound 114]
3. NS(=O)(=O)c1cc(C(=O)Nc2cc(F)c(=O)n(CCF)c2)sc1Cl [Compound 310]

1: > 50 µM; 2: 14.3 µM; 3: > 50 µM

For CCn1cc(NC(=O)c2cc(Cl)c(Cl)s2)cc(F)c1=O [Compound 109] , what is its reported IC50? 0.559 µM

----------
- TARGET_UNDER_TEST: FL-SMARCA2 (full-length human SMARCA2 isoform 1) (Homo sapiens)
- Construct: FLAG tag (YKDDDDK) (C); made in house; host or cells: Sf21 insect cells (baculovirus, pFastBacI)
- Sequence (P51531 with tags, fused parts or gaps): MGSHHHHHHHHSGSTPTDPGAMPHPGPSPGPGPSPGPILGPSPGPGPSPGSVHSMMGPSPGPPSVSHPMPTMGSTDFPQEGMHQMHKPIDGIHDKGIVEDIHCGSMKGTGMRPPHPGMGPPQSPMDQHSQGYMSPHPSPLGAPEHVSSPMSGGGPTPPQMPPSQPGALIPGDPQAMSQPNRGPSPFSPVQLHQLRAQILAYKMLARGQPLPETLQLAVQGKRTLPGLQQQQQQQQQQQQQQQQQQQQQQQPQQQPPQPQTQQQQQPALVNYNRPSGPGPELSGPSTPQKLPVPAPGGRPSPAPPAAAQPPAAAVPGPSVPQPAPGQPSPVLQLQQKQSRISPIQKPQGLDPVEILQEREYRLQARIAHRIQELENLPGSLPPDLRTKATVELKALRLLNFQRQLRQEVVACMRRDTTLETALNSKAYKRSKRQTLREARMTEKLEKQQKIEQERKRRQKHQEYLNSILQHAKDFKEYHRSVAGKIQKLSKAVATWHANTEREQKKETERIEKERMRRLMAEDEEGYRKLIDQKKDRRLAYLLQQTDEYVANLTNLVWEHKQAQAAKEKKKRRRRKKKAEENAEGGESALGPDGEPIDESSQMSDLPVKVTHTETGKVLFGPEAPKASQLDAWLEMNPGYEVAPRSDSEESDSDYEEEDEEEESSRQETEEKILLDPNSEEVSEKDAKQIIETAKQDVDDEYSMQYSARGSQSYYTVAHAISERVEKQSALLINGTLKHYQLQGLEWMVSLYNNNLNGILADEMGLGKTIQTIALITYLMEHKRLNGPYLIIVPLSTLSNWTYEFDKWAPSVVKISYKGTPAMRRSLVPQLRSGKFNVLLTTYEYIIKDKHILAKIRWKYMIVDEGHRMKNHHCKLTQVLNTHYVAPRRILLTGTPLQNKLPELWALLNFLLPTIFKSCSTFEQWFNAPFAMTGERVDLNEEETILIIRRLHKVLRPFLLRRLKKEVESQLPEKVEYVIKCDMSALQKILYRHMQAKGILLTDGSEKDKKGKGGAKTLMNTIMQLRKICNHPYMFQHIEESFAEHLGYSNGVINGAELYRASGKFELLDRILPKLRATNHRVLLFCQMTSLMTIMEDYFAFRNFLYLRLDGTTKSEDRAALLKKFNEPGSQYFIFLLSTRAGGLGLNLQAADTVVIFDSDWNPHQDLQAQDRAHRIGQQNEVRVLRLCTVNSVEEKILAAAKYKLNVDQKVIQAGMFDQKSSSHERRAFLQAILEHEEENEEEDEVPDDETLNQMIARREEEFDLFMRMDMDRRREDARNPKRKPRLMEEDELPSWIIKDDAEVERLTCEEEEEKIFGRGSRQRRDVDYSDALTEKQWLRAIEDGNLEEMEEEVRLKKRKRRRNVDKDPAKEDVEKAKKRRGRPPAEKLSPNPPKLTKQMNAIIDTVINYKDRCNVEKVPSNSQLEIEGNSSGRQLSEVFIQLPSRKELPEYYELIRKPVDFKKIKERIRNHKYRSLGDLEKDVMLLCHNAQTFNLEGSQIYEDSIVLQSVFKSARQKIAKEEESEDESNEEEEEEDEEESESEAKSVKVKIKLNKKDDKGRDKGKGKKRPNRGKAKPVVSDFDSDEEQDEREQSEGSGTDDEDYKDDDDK
- PROCEDURE_DETAILS: SMARCA2 ATPase activity assay (ADP-Glo, chicken mononucleosome substrate)
- Type: biochemical
- CONDITION_DETAILS: Table 3c.1; ATPase assay, enzyme 5 nM, ATP 250 uM, chicken mononucleosome 10 nM, 30 min preincubation
- Protocol: Molecular Biology: Full-length human SMARCA2 isoform 1 (P51531) transcript clone was amplified from a cDNA library incorporating an N-terminal HIS tag ([…]) fused directly to Ser2 of SMARCA2 and a C-FLAG tag (YKDDDDK) fused directly to Glu1590 of SMARCA2. […] Expressed full-length SMARCA2 was purified from cell paste by FLAG affinity chromatography followed by anion exchange chromatography. […] The purity of the protein was measured as 74% using micro-capillary based gel electrophoresis.
pIC50: −log10 of the molar value.
Record met whenever pIC50 is at 7 or higher; record not met when lower.

Reference set, count: 5
| COMPOUND | CATEGORY_LABEL |
| --- | --- |
| COc1cccc(C#Cc2cc(C(=O)Nc3cc(F)c(=O)n(CC(F)F)c3)sc2Cl)c1 [Compound 42c] | not met |
| O=C(Nc1cc(-c2cn[nH]c2)c(=O)n(CC(F)F)c1)c1sc(C(F)(F)F)cc1Cl [Compound 20c] | not met |
| O=C(Nc1cc(-c2ncco2)c(=O)n(CC(F)F)c1)c1sc(C(F)(F)F)cc1Cl [Compound 30c] | not met |
| CNC(=O)c1cccc(N2CC(c3cc(C(=O)Nc4cc(F)c(=O)n(CC(F)F)c4)sc3Cl)C2)c1 [Compound 176c] | not met |
| N#Cc1nc(C#Cc2cc(C(=O)Nc3cc(F)c(=O)n(CC(F)F)c3)sc2Cl)cs1 [Compound 117c] | met |

Quick check, pIC50 >= 7? O=C(Nc1cc(F)c(=O)n(CC(F)F)c1)[C@H]1CCCN1 [Compound 16c] not met

Next entry: O=C(Nc1cc(F)c(=O)n(CC(F)F)c1)c1cc(C#C[C@@H]2CCOC2)c(Cl)s1 [Compound 79c] met

Here is the next compound: O=C(Nc1cc(F)c(=O)n(CC(F)F)c1)c1cc(C#Cc2ccncc2)n[nH]1 [Compound 112c] not met

Next record, please: N#Cc1cc(C(=O)Nc2cc(F)c(=O)n(CC(F)F)c2)sc1C(F)(F)F [Compound 82c] met

What would you report for O=C1Cc2c(C#Cc3cc(C(=O)Nc4cc(F)c(=O)n(CC(F)F)c4)sc3Cl)cccc2N1 [Compound 142c] ? met

Repeat with O=C1Cc2ccc(C#Cc3cc(C(=O)Nc4cc(F)c(=O)n(CC(F)F)c4)sc3Cl)cc2N1 [Compound 140c] met

Check O=C(Nc1cc(F)c(=O)n(CC(F)F)c1)c1cc(C#Cc2ccnnc2)c(Cl)s1 [Compound 133c] too. met
